method: NS1 protein of Zika virus - qHTS assay to identify small molecule inhibitors in human HEK 293 cells (AID 1347053); note: nearly all actives have a fitted effect of over 55% in size
condition-details: HEK293 ZIKV MR766 infection, NS1 TR-FRET, 24 h; series mostly up to 46.1 µM
From the text: National Center for Advancing Translational Sciences [NCATS] Johns Hopkins University School of Medicine The non-structural 1 (NS1) protein of zika virus is known to associate with the viral replication complex. This cell-based TR-FRET ZIKV NS-1 assay measures the increased NS-1 protein in human HEK 293 cells after a 24-hour Zika virus infection by a TR-FRET assay readout. […]
Results filed as inconclusive are left out. Calls of active or inactive are those of the source. Calls come from the whole dose curve; as a rule, active = well fitted inhibition curve with a large enough effect; inconclusive = small, poorly fitted or top-dose-only effect; inactive = no such curve, though single readings can be large or run the other way.
Thanks in advance; please answer with one of these: active, inactive

Enquiry: What call does the record list for COc1cccc2nc(-c3cccs3)nc(NN3C(=O)C=C(C)C3=O)c12 ?
Return: active

Enquiry: Recorded call for Clc1ccc2ncc(-c3cccc(NC4CNC4)n3)n2c1 ?
Return: inactive

Enquiry: What was the test verdict on CCOc1ccccc1OCCNC(C)Cc1ccc(OC)c(S(N)(=O)=O)c1 (stereo not given) ?
Return: inactive

Enquiry: For this compound, state the assay outcome: COc1cc(C(=O)NS(=O)(=O)c2ccccc2C)ccc1Cc1cn(C)c2ccc(NC(=O)OC3CCCC3)cc12
Return: inactive

Enquiry: Status in this test for CC(=O)Nc1sc2c(c1-c1nc3ccccc3s1)CNC2 ?
Return: inactive

Enquiry: In this assay, the call recorded for CC[C@H](CO)Nc1nc(NCc2ccccc2)c2ncn(C(C)C)c2n1 was what?
Return: inactive

Enquiry: Would you mind telling me which call this test gave Cc1cn2cc(C(=O)N(C)CCO)cc(N[C@@H]3CCOc4cccc(C)c43)c2n1 ?
Return: inactive

Enquiry: Please let me know the test result on file for O=C(C=Cc1c(C(=O)O)[nH]c2cc(Cl)cc(Cl)c12)Nc1ccccc1 .
Return: inactive

Enquiry: // outcome(item) with item = Cc1cn2c(-c3cn[nH]c3)cnc2c(Nc2ccc(C(=O)N3CCNCC3)cc2F)n1
Return: inactive

Enquiry: Hi, do you know how Nc1ccccc1NC(=O)c1ccc(CNc2nccc(-c3cccnc3)n2)cc1 came out in this test?
Return: inactive

###

method: Quantitative High-Throughput drug screen in 47 multiple myeloma cell lines against the NCATS MIPE library collection: VP6_DJ cell viability assay (AID 1919867); note: nearly all actives have a fitted effect of over 40% in size
condition-details: ATP luminescence, 48 h; series mostly up to 45.8 µM
Text: PI: Beverly A. Mock Ph.D. Laboratory of Cancer Biology and Genetics, Center for Cancer Research, National Cancer Institute, National Institute of Health, Bethesda, Maryland […] 5; Detector; 425V; Luminescence; Viewlux PerkinElmer. […] 1. […] Briefly, the corresponding myeloma cell lines were screened in 1,536-well plates with 500 cells, 5-uL per well for inhibition of cell viability (assessed by measuring ATP levels with CellTiterGlo). […]
Inconclusive results are not listed. Calls of active or inactive are those of the source. The call rests on the fitted dose curve; in most records, active means well fitted cell-killing curve with a large enough effect; inconclusive means small, poorly fitted or top-dose-only effect, or effect the other way; inactive means no such curve, though single readings can be large or run the other way.
Give your call using only these classes: label 1 for active, label 0 for inactive

Enquiry: Lab log entry: Cc1cc(Nc2cc(N3CCN(C)CC3)nc(C=Cc3ccccc3)n2)n[nH]1 — outcome as called in the assay?
Return: label 1

Enquiry: Please state the recorded outcome for this compound: CC(C)(O)c1cc2nc(-c3cnc(N)nc3)nc(N3CCOCC3)c2s1
Return: label 1

Enquiry: Hey, what did the test say about Clc1ccc2ncc(-c3cccc(NC4CNC4)n3)n2c1 ?
Return: label 1

Enquiry: Identify the outcome logged in this assay for the compound shown: O=C(O)Cn1nnc(-c2cc(N3CCC(Oc4cc(F)ccc4Br)CC3)no2)n1
Return: label 0

Enquiry: I would be grateful if you could indicate the recorded call for C#Cc1cccc(Nc2ncnc3cc(OC)c(OCCCCCCC(=O)NO)cc23)c1 .
Return: label 1

Enquiry: For this compound, state the assay outcome: CC(=O)Nc1nc(C)c(-c2ccc(Cl)c(S(=O)(=O)NCCO)c2)s1
Return: label 1

Enquiry: How was C=CC(=O)Nc1cc2c(Nc3ccc(F)c(Cl)c3)ncnc2cc1OCCCN1CCOCC1 classified in this test?
Return: label 1

Enquiry: I'd appreciate the recorded outcome for Nc1ccc(S(=O)(=O)Nc2ncccn2)cc1 from this test.
Return: label 0

Enquiry: Called result for CC[C@@H]1C(=O)N(C)c2cnc(Nc3ccc(C(=O)NC4CCC(N5CCN(CC6CC6)CC5)CC4)cc3OC)nc2N1C(C)C (some centres not stated)
Return: label 1

Enquiry: Dear all, I need the recorded test outcome for CNC(=O)c1ccc(N2C(=S)N(c3cnc(C#N)c(C(F)(F)F)c3)C(=O)C23CCC3)cc1F , thank you.
Return: label 1

Enquiry: // param item: O=C(NCCCNc1nc(Nc2cccc(NC(=O)N3CCCC3)c2)ncc1I)c1cccs1 ; yields the recorded call
Return: label 1

Enquiry: Which result was noted for this compound in the test: CC1(C)CCC(c2ccc(Cl)cc2)=C(CN2CCN(c3ccc(C(=O)NS(=O)(=O)c4ccc(N[C@H](CCN5CCOCC5)CSc5ccccc5)c(S(=O)(=O)C(F)(F)F)c4)cc3)CC2)C1
Return: label 1

Enquiry: Recorded call for O=C(Cc1ccc(-c2ccc(OCCN3CCOCC3)cc2)cn1)NCc1ccccc1 ?
Return: label 1

Enquiry: Assay outcome for O=C(O)[C@H](Cc1c[nH]c2ccccc12)N1C(=O)c2ccccc2C1=O : what was it?
Return: label 1

Enquiry: Call for entry CN1CCN(Cc2ccc(NC(=O)Nc3ccc(Oc4cc(NC(=O)C5CC5)ncn4)cc3)cc2C(F)(F)F)CC1 :
Return: label 1

Enquiry: Any idea what this test logged for COc1cc(=C2C=c3ccccc3=N2)[nH]c1=Cc1[nH]c(C)cc1C ?
Return: label 1

Enquiry: Hi, sorry to bother you, what did the test record for Cc1coc2c1C(=O)C(=O)c1c-2ccc2c1CCCC2(C)C ?
Return: label 1

Enquiry: Given Cc1cc(Nc2ncnc3ccc(-c4ccc(CNCCS(C)(=O)=O)o4)cc23)ccc1Oc1ccn2ncnc2c1 , state the outcome it received in this test.
Return: label 1

Enquiry: What is the recorded call for this compound in the test? COc1cc(C(=O)NS(=O)(=O)c2ccccc2C)ccc1Cc1cn(C)c2ccc(NC(=O)OC3CCCC3)cc12
Return: label 1

Enquiry: Outcome logged for NC(=O)c1c(OCc2c(F)cc(Br)cc2F)nsc1NC(=O)NCCCCN1CCCC1 in this assay:
Return: label 1

Enquiry: What call does the record list for COc1cc(C)c(Sc2cnc(NC(=O)c3ccc(CNC(C)C(C)C)cc3)s2)cc1C(=O)N1CCN(C(C)=O)CC1 (configuration not stated) ?
Return: label 1

Enquiry: Dear all, I need the recorded test outcome for Cc1ccc(NC(=O)C2(c3ccc4c(c3)OC(F)(F)O4)CC2)nc1-c1cccc(C(=O)O)c1 , thank you.
Return: label 1

Enquiry: Look up the recorded call for C[C@@]12O[C@@H](C[C@]1(O)CO)n1c3ccccc3c3c4c(c5c6ccccc6n2c5c31)CNC4=O in this test.
Return: label 1

Enquiry: Could you kindly confirm the outcome this assay logged for Nc1nccc(Oc2ccc(NC(=O)c3c[nH]cc(-c4ccc(F)cc4)c3=O)cc2F)c1Cl ?
Return: label 1

Enquiry: // outcome(item) with item = C=C1C(=CC=C2CCCC3(C)[C@@H]([C@H](C)C=CC=CC(O)(CC)CC)CC[C@@H]23)C[C@@H](O)C[C@@H]1O (some centres not stated)
Return: label 1

Enquiry: Hello, I am checking results. What call was entered for CC1COC2(CCN(c3nc(=O)c4cc(C(F)(F)F)cc([N+](=O)[O-])c4s3)CC2)O1 (configuration not stated) ?
Return: label 0

Enquiry: Could you please tell me the result logged for CC[C@@]1(O)C(=O)OCc2c1cc1n(c2=O)Cc2cc3cc(O)ccc3nc2-1 in this assay?
Return: label 1

Enquiry: Hi, do you know how CCCCc1nc2cc(C=CC(=O)NO)ccc2n1CCN(CC)CC came out in this test?
Return: label 1

Enquiry: In this assay, the call recorded for CN(c1ncccc1CNc1nc(Nc2ccc3c(c2)CC(=O)N3)ncc1C(F)(F)F)S(C)(=O)=O was what?
Return: label 1

Enquiry: Fill in: this test's call for COC(=O)C1=C(C)NC(C)=C(C(=O)OCCN2CCN(C(c3ccccc3)c3ccccc3)CC2)C1c1cccc([N+](=O)[O-])c1 (configuration not stated) is ___
Return: label 1

Enquiry: Recorded call for O=C(C=Cc1c(C(=O)O)[nH]c2cc(Cl)cc(Cl)c12)Nc1ccccc1 ?
Return: label 0

Enquiry: Short answer needed: outcome of this test for CC(C)C[C@H](NC(=O)CNC(=O)c1cc(Cl)ccc1Cl)B(O)O ?
Return: label 1

Enquiry: Can you look up the reported call for CC(C)(C)OC(=O)Nc1ccc(-c2cc(C(=O)NCCCCCCC(=O)NO)no2)cc1 for me?
Return: label 1

Enquiry: Which result was noted for this compound in the test: c1ccc2c(CCNc3ccc(Nc4ccncc4)cc3)c[nH]c2c1
Return: label 1

Enquiry: For Cc1nc2cnc3ccc(C#Cc4cccnc4)cc3c2n1-c1ccc(C(C)(C)C#N)cc1 , which call appears in the assay record?
Return: label 1

Enquiry: Identify the outcome logged in this assay for the compound shown: CN(C)Cc1c(C(=O)NCCOc2ccc(C(=O)NO)cc2)oc2ccccc12
Return: label 1

Enquiry: # fetch the recorded call for COc1ccc(OC)c(-c2nnc3ccc(-c4ccc(OC)c(O[C@@H]5CCOC5)c4)nn23)c1 here
Return: label 1
